Target: T1, human c-Met ECD-Fc-Flis (human)
T1 construct: c-Met ECD fused to Fc with flag- and His-tag at the C-terminus; also called human c-Met extracellular domain (ECD)-Fc-Flis fusion; human c-Met-Flis-Fc ECD
T1 sequence (chain, as listed by the source): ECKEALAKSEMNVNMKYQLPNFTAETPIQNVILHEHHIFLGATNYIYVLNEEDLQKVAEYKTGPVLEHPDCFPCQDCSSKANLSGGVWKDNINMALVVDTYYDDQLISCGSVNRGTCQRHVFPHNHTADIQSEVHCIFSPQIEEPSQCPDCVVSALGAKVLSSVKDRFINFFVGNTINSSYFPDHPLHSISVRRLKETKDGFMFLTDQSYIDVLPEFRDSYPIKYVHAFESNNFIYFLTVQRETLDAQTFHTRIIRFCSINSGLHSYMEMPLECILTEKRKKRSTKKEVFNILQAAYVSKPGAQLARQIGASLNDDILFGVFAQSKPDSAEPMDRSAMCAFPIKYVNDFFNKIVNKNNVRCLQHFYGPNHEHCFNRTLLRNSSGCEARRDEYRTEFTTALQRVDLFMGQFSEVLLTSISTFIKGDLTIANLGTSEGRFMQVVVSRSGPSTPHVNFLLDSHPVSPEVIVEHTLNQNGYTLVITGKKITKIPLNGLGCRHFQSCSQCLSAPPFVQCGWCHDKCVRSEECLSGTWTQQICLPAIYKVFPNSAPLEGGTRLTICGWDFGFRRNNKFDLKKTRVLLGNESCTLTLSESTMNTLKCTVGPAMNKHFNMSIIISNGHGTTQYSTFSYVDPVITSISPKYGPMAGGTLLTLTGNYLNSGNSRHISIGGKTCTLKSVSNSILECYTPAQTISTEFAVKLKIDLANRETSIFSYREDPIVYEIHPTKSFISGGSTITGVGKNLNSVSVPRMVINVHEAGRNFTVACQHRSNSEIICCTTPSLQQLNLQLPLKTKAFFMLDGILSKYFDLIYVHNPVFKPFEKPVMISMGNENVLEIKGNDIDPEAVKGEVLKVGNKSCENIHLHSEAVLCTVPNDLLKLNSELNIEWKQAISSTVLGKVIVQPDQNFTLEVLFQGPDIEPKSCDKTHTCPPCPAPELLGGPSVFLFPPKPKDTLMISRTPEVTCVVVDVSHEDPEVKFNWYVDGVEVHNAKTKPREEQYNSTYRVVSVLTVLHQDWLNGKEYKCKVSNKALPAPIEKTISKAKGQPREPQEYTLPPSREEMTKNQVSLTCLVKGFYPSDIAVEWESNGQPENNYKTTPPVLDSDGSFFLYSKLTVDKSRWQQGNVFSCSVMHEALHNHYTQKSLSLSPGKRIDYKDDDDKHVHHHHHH
Experiment: HGF-blocking ELISA: HGF signal on coated c-Met ECD-Fc-Flis; Ab 0.48 ng/mL
I'd appreciate it if you could supply AVG A450 nm values for the items below.
Could you give me the number in A450 nm? Just the number is fine.

State, in one line, measured AVG A450 nm of D11-C27G3 (antibody, human IgG2, kappa, V domains shown, Human engineered IgG2 kappa c-Met antibody; also called D11-27G3; D11-C27G3 IgG2) VH: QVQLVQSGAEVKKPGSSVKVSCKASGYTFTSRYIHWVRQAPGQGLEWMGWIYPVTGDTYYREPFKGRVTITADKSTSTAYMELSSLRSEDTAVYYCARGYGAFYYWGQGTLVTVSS VL: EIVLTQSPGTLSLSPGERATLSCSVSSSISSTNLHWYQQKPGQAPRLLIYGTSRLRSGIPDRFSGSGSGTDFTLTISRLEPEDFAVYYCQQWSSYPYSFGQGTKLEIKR
2.37

State, in one line, measured AVG A450 nm of C8-H241 (antibody, human IgG2, kappa, V domains shown, Named IgG4 kappa; also called Mab C8-H241) VH: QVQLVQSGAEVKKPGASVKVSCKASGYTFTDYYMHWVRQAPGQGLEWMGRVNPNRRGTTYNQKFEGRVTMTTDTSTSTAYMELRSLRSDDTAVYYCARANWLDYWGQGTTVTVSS VL: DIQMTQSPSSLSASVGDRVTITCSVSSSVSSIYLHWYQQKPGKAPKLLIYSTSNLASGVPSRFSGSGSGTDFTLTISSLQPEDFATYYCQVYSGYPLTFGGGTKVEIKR
2.45

State, in one line, measured AVG A450 nm of D11-8B8 (antibody, human IgG2, kappa, V domains shown, Human engineered IgG2 kappa c-Met antibody; also called Mab D11-8B8; D11-8B8 IgG2) VH: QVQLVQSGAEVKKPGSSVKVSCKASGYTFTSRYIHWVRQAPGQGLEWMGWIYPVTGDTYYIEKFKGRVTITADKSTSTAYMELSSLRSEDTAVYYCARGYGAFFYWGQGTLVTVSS VL: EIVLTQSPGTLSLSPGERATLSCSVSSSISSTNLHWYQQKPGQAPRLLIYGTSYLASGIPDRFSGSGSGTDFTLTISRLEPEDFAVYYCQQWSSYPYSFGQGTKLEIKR
2.51
